pIC50 data for receptors in rat pancreas (3H-CCK-8-(SO3 H) binding) (Rattus norvegicus, UniProt P30551) follow.
Where a SMILES comes first, the peptide text is derived from it. [ ]: non-standard residue; d: D form. The star is where a group is joined. Thr(SO3H) = C[C@@H](OS(=O)(=O)O)[C@H](N)C(=O)O; sY = N[C@@H](Cc1ccc(OS(=O)(=O)O)cc1)C(=O)O; NMeF = CN[C@@H](Cc1ccccc1)C(=O)O; Nle = CCCC[C@H](N)C(=O)O; For = O=C*
# reply with the number alone; pIC50 is -log10 of concentration in mol/L

CCCC[C@H](NC(=O)[C@H](Cc1ccc(OS(=O)(=O)O)cc1)NC(C)=O)C(=O)N[C@H](C)C(=O)N[C@@H](Cc1c[nH]c2ccccc12)C(=O)N[C@@H](CCSC)C(=O)N[C@H](C(=O)N(C)[C@@H](Cc1ccccc1)C(N)=O)[C@@H](C)OS(=O)(=O)O [Example 4] (Ac-[sY][Nle][dA]WM[Thr(SO3H)][NMeF]-NH2): 7.36

Exam item: Please report the recorded pIC50 for CSCC[C@H](NC(=O)[C@H](Cc1ccc(OS(=O)(=O)O)cc1)NC(C)=O)C(=O)N[C@@H](C)C(=O)N[C@@H](Cc1c[nH]c2ccccc12)C(=O)N[C@@H](CCSC)C(=O)N[C@H](C(=O)N(C)[C@@H](Cc1ccccc1)C(N)=O)[C@@H](C)OS(=O)(=O)O [Example 6] (Ac-[sY]MAWM[Thr(SO3H)][NMeF]-NH2) .
Marked response: 7.00

Exam item: # query: pIC50 of entry CSCC[C@H](NC(=O)[C@H](Cc1ccc(OS(=O)(=O)O)cc1)NC(C)=O)C(=O)NCC(=O)N[C@@H](Cc1c[nH]c2ccccc12)C(=O)N[C@@H](CCSC)C(=O)N[C@H](C(=O)N(C)[C@@H](Cc1ccccc1)C(N)=O)[C@@H](C)OS(=O)(=O)O [Example 2] (Ac-[sY]MGWM[Thr(SO3H)][NMeF]-NH2)
Marked response: 8.66

Exam item: Tell me the measured pIC50 of CCCC[C@H](NC(=O)[C@H](Cc1ccc(OS(=O)(=O)O)cc1)NC(C)=O)C(=O)N[C@H](C)C(=O)N[C@@H](Cc1cn(C=O)c2ccccc12)C(=O)N[C@@H](CCSC)C(=O)N[C@H](C(=O)N(C)[C@@H](Cc1ccccc1)C(N)=O)[C@@H](C)OS(=O)(=O)O [Example 3] (Ac-[sY][Nle][dA]W(For)M[Thr(SO3H)][NMeF]-NH2) , please.
Marked response: 7.00

----------
target-entity: receptors in bovine striatum (3H-CCK-8-(SO3 H) binding, central receptor) (Bos taurus, UniProt P79266)
Sequence (P79266 whole entry): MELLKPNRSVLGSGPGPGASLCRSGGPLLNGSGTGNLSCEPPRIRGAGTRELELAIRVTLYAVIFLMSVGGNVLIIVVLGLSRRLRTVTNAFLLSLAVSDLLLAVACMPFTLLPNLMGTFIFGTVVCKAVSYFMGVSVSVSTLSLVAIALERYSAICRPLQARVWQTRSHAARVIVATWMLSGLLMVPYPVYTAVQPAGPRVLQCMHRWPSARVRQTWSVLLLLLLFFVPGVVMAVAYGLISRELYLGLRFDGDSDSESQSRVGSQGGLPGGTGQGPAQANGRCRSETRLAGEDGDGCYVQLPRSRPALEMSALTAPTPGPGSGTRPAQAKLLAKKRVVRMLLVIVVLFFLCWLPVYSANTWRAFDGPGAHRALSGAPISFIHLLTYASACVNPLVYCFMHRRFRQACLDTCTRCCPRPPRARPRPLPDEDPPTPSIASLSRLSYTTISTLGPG
Where a SMILES comes first, the peptide text is derived from it. [ ]: non-standard residue; d: D form. The star is where a group is joined. Thr(SO3H) = C[C@@H](OS(=O)(=O)O)[C@H](N)C(=O)O; sY = N[C@@H](Cc1ccc(OS(=O)(=O)O)cc1)C(=O)O; NMeF = CN[C@@H](Cc1ccccc1)C(=O)O; Nle = CCCC[C@H](N)C(=O)O; For = O=C*
assay-metric: IC50 (nM)
Report only the number, with the unit nM understood.

CSCC[C@H](NC(=O)[C@H](Cc1ccc(OS(=O)(=O)O)cc1)NC(C)=O)C(=O)NCC(=O)N[C@@H](Cc1cn(C=O)c2ccccc12)C(=O)N[C@@H](CCSC)C(=O)N[C@H](C(=O)N(C)[C@@H](Cc1ccccc1)C(N)=O)[C@@H](C)OS(=O)(=O)O [Example 1] (Ac-[sY]MGW(For)M[Thr(SO3H)][NMeF]-NH2): 1000

Then there is this compound:
Exam item: # query: IC50 of entry CCCC[C@H](NC(=O)[C@H](Cc1ccc(OS(=O)(=O)O)cc1)NC(C)=O)C(=O)N[C@H](C)C(=O)N[C@@H](Cc1c[nH]c2ccccc12)C(=O)N[C@@H](CCSC)C(=O)N[C@H](C(=O)N(C)[C@@H](Cc1ccccc1)C(N)=O)[C@@H](C)OS(=O)(=O)O [Example 4] (Ac-[sY][Nle][dA]WM[Thr(SO3H)][NMeF]-NH2)
Marked response: 100
